Collected BI values appear next to each entry.
System: DFNB31-2
procedure-summary: Holdup assay, DFNB31-2
Assay type: binding, human
*1 amine or outer side, *2 acyl side, *3 side chain or, on linkers, in order; H or OH if unused. Where a SMILES comes first, the peptide text is derived from it. The star is where a group is joined. X1 = O=C(CCCC[C@@H]1SC[C@@H]2NC(=O)N[C@@H]21)NCCCOCCOCCOCCCN*; Suc = O=C(CCC(=O)[*:2])[*:1]
measured-property: BI

compound	value-reported
CC[C@H](C)[C@H](NC(=O)[C@H](CCC(N)=O)NC(=O)[C@@H](NC(=O)[C@H](Cc1c[nH]cn1)NC(=O)[C@H](CCC(N)=O)NC(=O)[C@H](CC(=O)O)NC(=O)[C@H](CCC(=O)O)NC(=O)[C@H](CC(=O)O)NC(=O)CCC(=O)NCCCOCCOCCOCCCNC(=O)CCCC[C@@H]1SC[C@@H]2NC(=O)N[C@@H]21)[C@@H](C)O)C(=O)N[C@H](C(=O)N[C@@H](CCCCN)C(=O)N[C@H](C(=O)O)C(C)C)[C@@H](C)O	-0.03
CC[C@H](C)[C@H](NC(=O)[C@H](CCC(N)=O)NC(=O)[C@@H](NC(=O)[C@H](Cc1c[nH]cn1)NC(=O)[C@H](CCC(N)=O)NC(=O)[C@H](CC(=O)O)NC(=O)[C@H](CCC(=O)O)NC(=O)[C@H](CC(=O)O)NC(=O)CCC(=O)NCCCOCCOCCOCCCNC(=O)CCCC[C@@H]1SC[C@@H]2NC(=O)N[C@@H]21)[C@@H](C)O)C(=O)N[C@H](C(=O)N[C@@H](CCCNC(=N)N)C(=O)N[C@H](C(=O)O)C(C)C)[C@@H](C)O [PTEN_KR] ({X1-Suc}-DEDQHTQITRV-OH)	-0.046
CC[C@H](C)[C@H](NC(=O)[C@H](CCC(N)=O)NC(=O)[C@@H](NC(=O)[C@H](Cc1c[nH]cn1)NC(=O)[C@H](CCC(N)=O)NC(=O)[C@H](CC(=O)O)NC(=O)[C@H](CCC(=O)O)NC(=O)[C@H](CC(=O)O)NC(=O)CCC(=O)NCCCOCCOCCOCCCNC(=O)CCCC[C@@H]1SC[C@@H]2NC(=O)N[C@@H]21)[C@@H](C)O)C(=O)N[C@H](C(=O)N[C@@H](CCCCNC(C)=O)C(=O)N[C@H](C(=O)O)C(C)C)[C@@H](C)O	-0.091
CC[C@H](C)[C@H](NC(=O)[C@H](CCC(N)=O)NC(=O)[C@@H](NC(=O)[C@H](Cc1c[nH]cn1)NC(=O)[C@H](CCC(N)=O)NC(=O)[C@H](CC(=O)O)NC(=O)[C@H](CCC(=O)O)NC(=O)[C@H](CC(=O)O)NC(=O)[C@H](Cc1ccccc1)NC(=O)[C@@H]1CCCN1C(=O)CCC(=O)NCCCOCCOCCOCCCNC(=O)CCCC[C@@H]1SC[C@@H]2NC(=O)N[C@@H]21)[C@@H](C)O)C(=O)N[C@H](C(=O)N[C@@H](CCCCN)C(=O)N[C@H](C(=O)O)C(C)C)[C@@H](C)O [PTEN_13] ({X1-Suc}-PFDEDQHTQITKV-OH)	0.036

----------
target-or-test-system: GRASP-1 (Homo sapiens)
Sequence (Q7Z6J2 100-189): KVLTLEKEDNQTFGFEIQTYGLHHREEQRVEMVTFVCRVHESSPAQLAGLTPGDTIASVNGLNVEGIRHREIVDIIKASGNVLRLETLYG
procedure-summary: Holdup assay, GRASP-1
Format: binding
conditions-used: GRASP-1
*1 amine or outer side, *2 acyl side, *3 side chain or, on linkers, in order; H or OH if unused. Where a SMILES comes first, the peptide text is derived from it. The star is where a group is joined. X1 = O=C(CCCC[C@@H]1SC[C@@H]2NC(=O)N[C@@H]21)NCCCOCCOCCOCCCN*; Suc = O=C(CCC(=O)[*:2])[*:1]
Collected BI values appear next to each entry.
measured-property: BI

molecule	value-reported
CC[C@H](C)[C@H](NC(=O)[C@H](CCC(N)=O)NC(=O)[C@@H](NC(=O)[C@H](Cc1c[nH]cn1)NC(=O)[C@H](CCC(N)=O)NC(=O)[C@H](CC(=O)O)NC(=O)[C@H](CCC(=O)O)NC(=O)[C@H](CC(=O)O)NC(=O)CCC(=O)NCCCOCCOCCOCCCNC(=O)CCCC[C@@H]1SC[C@@H]2NC(=O)N[C@@H]21)[C@@H](C)O)C(=O)N[C@H](C(=O)N[C@@H](CCCNC(=N)N)C(=O)N[C@H](C(=O)O)C(C)C)[C@@H](C)O [PTEN_KR] ({X1-Suc}-DEDQHTQITRV-OH)	0.575
CC[C@H](C)[C@H](NC(=O)[C@H](CCC(N)=O)NC(=O)[C@@H](NC(=O)[C@H](Cc1c[nH]cn1)NC(=O)[C@H](CCC(N)=O)NC(=O)[C@H](CC(=O)O)NC(=O)[C@H](CCC(=O)O)NC(=O)[C@H](CC(=O)O)NC(=O)CCC(=O)NCCCOCCOCCOCCCNC(=O)CCCC[C@@H]1SC[C@@H]2NC(=O)N[C@@H]21)[C@@H](C)O)C(=O)N[C@H](C(=O)N[C@@H](CCCCN)C(=O)N[C@H](C(=O)O)C(C)C)[C@@H](C)O	0.492
CC[C@H](C)[C@H](NC(=O)[C@H](CCC(N)=O)NC(=O)[C@@H](NC(=O)[C@H](Cc1c[nH]cn1)NC(=O)[C@H](CCC(N)=O)NC(=O)[C@H](CC(=O)O)NC(=O)[C@H](CCC(=O)O)NC(=O)[C@H](CC(=O)O)NC(=O)[C@H](Cc1ccccc1)NC(=O)[C@@H]1CCCN1C(=O)CCC(=O)NCCCOCCOCCOCCCNC(=O)CCCC[C@@H]1SC[C@@H]2NC(=O)N[C@@H]21)[C@@H](C)O)C(=O)N[C@H](C(=O)N[C@@H](CCCCN)C(=O)N[C@H](C(=O)O)C(C)C)[C@@H](C)O [PTEN_13] ({X1-Suc}-PFDEDQHTQITKV-OH)	0.544
CC[C@H](C)[C@H](NC(=O)[C@H](CCC(N)=O)NC(=O)[C@@H](NC(=O)[C@H](Cc1c[nH]cn1)NC(=O)[C@H](CCC(N)=O)NC(=O)[C@H](CC(=O)O)NC(=O)[C@H](CCC(=O)O)NC(=O)[C@H](CC(=O)O)NC(=O)CCC(=O)NCCCOCCOCCOCCCNC(=O)CCCC[C@@H]1SC[C@@H]2NC(=O)N[C@@H]21)[C@@H](C)O)C(=O)N[C@H](C(=O)N[C@@H](CCCCNC(C)=O)C(=O)N[C@H](C(=O)O)C(C)C)[C@@H](C)O	0.757

----------
target-or-test-system: LIMK2-1 (Homo sapiens)
Sequence (P53671 152-239): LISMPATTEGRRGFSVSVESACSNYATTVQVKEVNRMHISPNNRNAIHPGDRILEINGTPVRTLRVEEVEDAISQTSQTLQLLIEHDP
procedure-summary: Holdup assay, LIMK2-1
Assay type: binding
measured-property: BI

input-smiles	measured-property	value-reported
CC[C@H](C)[C@H](NC(=O)[C@H](CCC(N)=O)NC(=O)[C@@H](NC(=O)[C@H](Cc1c[nH]cn1)NC(=O)[C@H](CCC(N)=O)NC(=O)[C@H](CC(=O)O)NC(=O)[C@H](CCC(=O)O)NC(=O)[C@H](CC(=O)O)NC(=O)CCC(=O)NCCCOCCOCCOCCCNC(=O)CCCC[C@@H]1SC[C@@H]2NC(=O)N[C@@H]21)[C@@H](C)O)C(=O)N[C@H](C(=O)N[C@@H](CCCCNC(C)=O)C(=O)N[C@H](C(=O)O)C(C)C)[C@@H](C)O	BI	-0.087

----------
target-or-test-system: GOPC-1 (Homo sapiens, UniProt Q9HD26)
pKd: −log10 of the molar value. *1 amine or outer side, *2 acyl side, *3 side chain or, on linkers, in order; H or OH if unused. Where a SMILES comes first, the peptide text is derived from it. The star is where a group is joined. X1 = O=C(CCCC[C@@H]1SC[C@@H]2NC(=O)N[C@@H]21)NCCCOCCOCCOCCCN*; Suc = O=C(CCC(=O)[*:2])[*:1]

compound	target-or-test-system	pKd
CC[C@H](C)[C@H](NC(=O)[C@H](CCC(N)=O)NC(=O)[C@@H](NC(=O)[C@H](Cc1c[nH]cn1)NC(=O)[C@H](CCC(N)=O)NC(=O)[C@H](CC(=O)O)NC(=O)[C@H](CCC(=O)O)NC(=O)[C@H](CC(=O)O)NC(=O)CCC(=O)NCCCOCCOCCOCCCNC(=O)CCCC[C@@H]1SC[C@@H]2NC(=O)N[C@@H]21)[C@@H](C)O)C(=O)N[C@H](C(=O)N[C@@H](CCCCN)C(=O)N[C@H](C(=O)O)C(C)C)[C@@H](C)O	GOPC-1 (Homo sapiens, UniProt Q9HD26)	4.03
CC[C@H](C)[C@H](NC(=O)[C@H](CCC(N)=O)NC(=O)[C@@H](NC(=O)[C@H](Cc1c[nH]cn1)NC(=O)[C@H](CCC(N)=O)NC(=O)[C@H](CC(=O)O)NC(=O)[C@H](CCC(=O)O)NC(=O)[C@H](CC(=O)O)NC(=O)CCC(=O)NCCCOCCOCCOCCCNC(=O)CCCC[C@@H]1SC[C@@H]2NC(=O)N[C@@H]21)[C@@H](C)O)C(=O)N[C@H](C(=O)N[C@@H](CCCNC(=N)N)C(=O)N[C@H](C(=O)O)C(C)C)[C@@H](C)O [PTEN_KR] ({X1-Suc}-DEDQHTQITRV-OH)	GOPC-1 (Homo sapiens, UniProt Q9HD26)	4.55
CC[C@H](C)[C@H](NC(=O)[C@H](CCC(N)=O)NC(=O)[C@@H](NC(=O)[C@H](Cc1c[nH]cn1)NC(=O)[C@H](CCC(N)=O)NC(=O)[C@H](CC(=O)O)NC(=O)[C@H](CCC(=O)O)NC(=O)[C@H](CC(=O)O)NC(=O)[C@H](Cc1ccccc1)NC(=O)[C@@H]1CCCN1C(=O)CCC(=O)NCCCOCCOCCOCCCNC(=O)CCCC[C@@H]1SC[C@@H]2NC(=O)N[C@@H]21)[C@@H](C)O)C(=O)N[C@H](C(=O)N[C@@H](CCCCN)C(=O)N[C@H](C(=O)O)C(C)C)[C@@H](C)O [PTEN_13] ({X1-Suc}-PFDEDQHTQITKV-OH)	GOPC-1 (Homo sapiens, UniProt Q9HD26)	4.19
